test system: SF-539; experiment: NCI tumour cell line growth inhibition, 48 h
Activity calls are given as the source filed them. Rule as the data show it: active = GI50 up to about 1.1 µM and inactive = higher.
For each record, write down the corresponding GI50.

Examples with their reported GI50 follow.
| compound | metric-name | measured-value |
| --- | --- | --- |
| CCOC(=O)CCC(NC(=O)c1ccc(Nc2nc3ccc(C(F)(F)F)cc3nc2-c2ccccc2)cc1)C(=O)OCC (centres undefined) | GI50 | 45.5 µM (inactive) |
| CS(=O)(=O)c1ccc(COP(N)(=O)N(CCCl)CCCl)cc1 (centres undefined) | GI50 | > 100 µM (inactive) |
| CCCCCCCCCCCCCCCCCc1nnc(N)o1 | GI50 | > 100 µM (inactive) |

From here, focus on the item given below.
Give GI50 (SF-539) of the following compound: C=C(C)/C=C/C(O)[C@](C)(O)[C@H]1[C@H](O)C[C@@]2(C)[C@@H]3CCc4c(cc(OC5OC(CO)C(O)C(O)C5O)c(O)c4C)C3(C)C(=O)C[C@]12C (some centres undefined)
96.4 µM (inactive)

* * *

tested on: UACC-257; test: NCI tumour cell line growth inhibition, 48 h
The source made the active and inactive calls. Cut-off read from the data, not from the text of the source: active = GI50 up to about 1.1 µM and inactive = higher.
Kindly state GI50 for each of the entries shown.

Example cases with answers are listed next.
| compound | GI50 |
| --- | --- |
| O=C1CCCC2(c3ccccc3)Nc3ccccc3N12 (stereo unspecified) | > 100 µM (inactive) |
| COc1ccc(S(=O)(=O)Nc2ccc(-c3csc(N4C(=O)/C(=C/c5ccccc5[N+](=O)[O-])N=C4c4ccccc4)n3)cc2)cc1Cl | 38.6 µM (inactive) |
| N#CSC#CCCC#CSC#N | 16.9 µM (inactive) |
| CN(C)CC1CCCCCCCCCCCCC(CN(C)C)C1=O (stereo unspecified) | 16.3 µM (inactive) |
| O=C(/C=C(\O)C(=O)O)/C=C(\O)c1ccccc1Cl | > 100 µM (inactive) |

From here, focus on the item given below.
Given the entry CC1(O)CCC2(C#N)CCC1C2O (stereo unspecified) , report its measured GI50.
> 100 µM (inactive)

* * *

Please go through the items and note down their GI50.
test system: CCRF-CEM; assay: NCI tumour cell line growth inhibition, 48 h
Activity calls are given as the source filed them. Cut-off read from the data, not from the text of the source: active = GI50 up to about 1.1 µM and inactive = higher.

| molecule | measured-value |
| --- | --- |
| O=C1NC2C(=O)N(Cc3ccccc3)C(=O)C2N1 (stereo unspecified) | > 100 µM (inactive) |

# map each molecule to its GI50
1. Cn1c(=O)c2nc(/N=N/Nc3nncs3)[nH]c2n(C)c1=O
2. OC1OC(c2ccc[nH]2)C(F)(F)C(F)(F)C1(F)F (stereo unspecified)

1: > 100 µM (inactive); 2: 73.6 µM (inactive)

Parameters: items (list). Returns: GI50 for each item.
1. O=C(O)CSC(CC(=O)c1ccc(Cl)cc1)c1ccc(Cl)cc1 (stereo unspecified)
2. CCOC(=O)/C=C/CCC(C)(C)COC(C)=O
3. Cc1cc(C)c(S(=O)(=O)N[C@@H](/C=C(\Br)CO)C(C)C)c(C)c1
4. Cc1ccccc1-n1c(C)nc(-c2ccccc2)cc1=O
5. CC(C)c1ccc(O)c(=O)c(O)c1.CC(C)c1ccc(O)c(=O)cc1.CC(C)c1cccc(=O)c(O)c1.CC(C)c1ccccc(=O)c1O

8.71 µM (inactive)
> 10 µM (inactive)
27.3 µM (inactive)
> 100 µM (inactive)
0.21 µM (active)

Hi! Can you tell me GI50 for each of these molecules?
1. CC1=NN(c2cccc(Cl)c2)C(=N/c2nc3ccccc3s2)/C1=C\c1ccccc1O
2. C=CCc1cc(-c2n[nH]c(=S)[nH]2)ccc1N/N=N/c1ccc(C(=O)O)cc1
3. Cc1cc2nc3c(C#N)c(C)c(CCCl)c(Cl)n3c2cc1C
4. OCC1OC(OCC(O)C(O)C(O)C(/C=N/Nc2ccccc2)=N/Nc2ccccc2)C(O)C(O)C1O (stereo unspecified)
5. Cc1ccc(C2SC(=N)Nc3c2c(C)nn3C(=O)c2ccncc2)cc1 (stereo unspecified)
6. CC[N+]1(C)CCC(O)(/C=C/c2ccccc2)C(C(=O)/C=C/c2ccccc2)C1 (stereo unspecified)
7. O=C(NCCSSCCNC(=O)/C(Cc1ccc(O)c(Br)c1)=N/O)/C(Cc1ccc(O)c(Br)c1)=N/O [PSAMMAPLIN A]
8. O=Cc1cc2c(cc1-c1c(C=O)ccc3c1OCO3)OCO2

["35.9 µM (inactive)", "54 µM (inactive)", "2.34 µM (inactive)", "> 100 µM (inactive)", "> 10 µM (inactive)", "1.94 µM (inactive)", "0.377 µM (active)", "> 10 µM (inactive)"]

* * *

system: 786-0; assay: NCI tumour cell line growth inhibition, 48 h
The source made the active and inactive calls. No stated cut-off is given here; in the data, active = GI50 up to about 1.1 µM and inactive = higher.
metric-name: GI50

The cases that follow already have their GI50 on record.
| compound | GI50 |
| --- | --- |
| COc1ccc(/C=C2/NC(=S)N=C2Cl)cc1 | > 100 µM (inactive) |
| O=C1CC(=O)NC(NN2C(=O)CSC2c2ccc(Cl)c(Cl)c2)=N1 (stereo unspecified) | > 100 µM (inactive) |
| O=[N+]([O-])c1cc(Cl)ccc1Sc1ccccc1 | > 100 µM (inactive) |
| O=C(N/N=C/c1ccccc1O)c1cccc([N+](=O)[O-])c1 | 6.47 µM (inactive) |
| S=P(N1CC1)(N1CC1)N1CC1 [THIOTEPA] | 39.8 µM (inactive) |

Answer for every listed entry: what is its GI50? The entries follow.
1. S=C1c2ccccc2N=C(NC2CCCC2)C2CSCN12 (stereo unspecified)
2. O=C1OC(c2ccccc2)=N/C1=C\c1cc(Cl)ccc1Cl
3. N#CC1=C(N2CCOCC2)CCC1
4. COc1ccc(S(=O)(=O)N2C(=O)CCC2C(=O)NC(N)=O)cc1 (stereo unspecified)
5. C=C[C@H]1CN2CC[C@H]1C[C@@H]2[C@@H](O)c1ccnc2ccccc12 [CINCHONINE]
6. Cc1cc(C)c(S(=O)(=O)N[C@@H](/C=C(\Br)CO)C(C)C)c(C)c1

["> 100 µM (inactive)", "62.2 µM (inactive)", "> 100 µM (inactive)", "> 100 µM (inactive)", "> 100 µM (inactive)", "30.5 µM (inactive)"]

* * *

tested on: COLO 205; assay: NCI tumour cell line growth inhibition, 48 h
The source made the active and inactive calls. Cut-off read from the data, not from the text of the source: active = GI50 up to about 1.1 µM and inactive = higher.
Assign GI50 to each entry below.

| smiles-input | measured-value |
| --- | --- |
| COc1cc(-c2nnc3n2NC=C(C(=O)O)S3)cc(OC)c1OC | > 57.5 µM (inactive) |
| O=[N+]([O-])c1cc(Cl)ccc1Sc1ccccc1 | > 100 µM (inactive) |
| COc1c(NC(C)=O)cc(C)cc1NC(C)=O | > 100 µM (inactive) |
| O=C(/C=C(\O)C(=O)O)/C=C(\O)c1ccccc1Cl | > 100 µM (inactive) |

List GI50 for every entry below, keeping the order given.
1. O=C1Nc2ccccc2/C1=C\c1c(Cl)nc2n1CCS2
2. CC1=Nc2c(C#N)ncn2N=C(C)C1

1. 17.9 µM (inactive)
2. > 100 µM (inactive)

* * *

test system: A549; experiment: NCI tumour cell line growth inhibition, 48 h
Where a name gives a salt, the structure may show the parent alone. Calls of active or inactive are those of the source. Cut-off read from the data, not from the text of the source: active = GI50 up to about 1.1 µM and inactive = higher.
metric-name: GI50

Example results:
| compound | measured-value |
| --- | --- |
| NN=C1/C(=C\c2ccccc2)CCC/C1=C/c1ccccc1 | 33.3 µM (inactive) |
| C=CCc1cc(-c2n[nH]c(=S)[nH]2)ccc1N/N=N/c1ccc(C(=O)O)cc1 | > 100 µM (inactive) |
| O=C(N/C(=C\c1cccc([N+](=O)[O-])c1)c1nc2cc([N+](=O)[O-])ccc2[nH]1)c1ccccc1 | 26.8 µM (inactive) |
| C#Cc1cccc(Nc2ncnc3cc(OCCOC)c(OCCOC)cc23)c1 [ERLOTINIB HYDROCHLORIDE] | 1.59 µM (inactive) |

# ---- query compound ----
Would you kindly share the measured GI50 for `COc1ccc(/C=C\c2cc(OC)c(OC)c(OC)c2)cc1OCC(=O)O` ?
24.8 µM (inactive)

* * *

system: OVCAR-4; assay: NCI tumour cell line growth inhibition, 48 h
Calls of active or inactive are those of the source. Rule as the data show it: active = GI50 up to about 1.1 µM and inactive = higher.
Please respond with reported GI50 for every item in the list.

Example molecules with recorded GI50:
| molecule | measured-on | GI50 |
| --- | --- | --- |
| COCn1cc(C2=C(C)C(=O)C(C)=C(C)C2=O)cn1 | OVCAR-4 | 17.7 µM (inactive) |
| Cc1ccccc1C1=C/C(=C(\SS/C(C(=O)c2ccc(OCC(=O)O)c(Cl)c2Cl)=C2\C=C(c3ccccc3C)SS2)C(=O)c2ccc(OCC(=O)O)c(Cl)c2Cl)SS1 | OVCAR-4 | 21.1 µM (inactive) |
| CCCCCC(/C=C/[C@@H]1[C@@H](C(O)CCCCCC(=O)OC)C(=O)C[C@H]1O[Si](C)(C)C(C)(C)C)OCOCCOC (some centres undefined) | OVCAR-4 | 18.5 µM (inactive) |
| COC1OC(C(=O)O)C2OC(C)(C)OC12 (centres undefined) | OVCAR-4 | > 100 µM (inactive) |
| O=c1[nH]c2ccccc2n1CCCN1CCC(n2c(=O)[nH]c3cc(Cl)ccc32)CC1 [DOMPERIDONE] | OVCAR-4 | 17.2 µM (inactive) |
| CC[N+]1(C)CCC(O)(/C=C/c2ccccc2)C(C(=O)/C=C/c2ccccc2)C1 (centres undefined) | OVCAR-4 | 13.7 µM (inactive) |
| CO[C@@]12C[C@@H](C)[C@]34O[C@H]3C[C@]3(C)O[C@]43CC1=C(C)C(=O)O2 | OVCAR-4 | > 100 µM (inactive) |
| O=[N+]([O-])c1cc(Cl)ccc1Sc1ccccc1 | OVCAR-4 | > 100 µM (inactive) |

Please look at the following molecule next.
Given the molecule `O=C(O)Cc1cc(=O)oc2cc(O)c(Cl)cc12` , what is its reported GI50?
> 100 µM (inactive)
